A collection of molecules and their measured melting point

Some entries whose results are on file:
[[record]]
molecule = "COCCc1c(-c2ccc(OC(F)F)c(OC3CC3)c2)[nH]c2cn[nH]c(=O)c12 [Example 66]"
value = "215 to 217 °C"

[[record]]
molecule = "O=c1[nH]ncc2[nH]c(-c3ccc(OC(F)F)c(OC4CC4)c3)c(COC3CCC3)c12 [Example 13]"
value = "95 to 100 °C"

[[record]]
molecule = "O=c1[nH]ncc2[nH]c(-c3ccc(OC(F)F)c(OC4CC4)c3)c(Cc3ccccc3F)c12 [Example 22]"
value = "202 to 204 °C"

[[record]]
molecule = "O=c1[nH]ncc2[nH]c(-c3ccc(OC(F)F)c(OC4CC4)c3)c(C3CC3)c12 [Example 14]"
value = "248 to 249 °C"

[[record]]
molecule = "O=c1[nH]ncc2[nH]c(-c3ccc(OC(F)F)c(OCC4CC4)c3)c(Cl)c12 [Example 36]"
value = "258 to 260 °C"

[[record]]
molecule = "O=c1[nH]ncc2[nH]c(-c3ccc(OC(F)F)c(OC4CC4)c3)c(CCC3CC3)c12 [Example 70]"
value = "194 to 197 °C"

[[record]]
molecule = "COCc1c(-c2ccc(OC(F)F)c(OC3CC3)c2)[nH]c2cn[nH]c(=O)c12 [Example 11]"
value = "104 to 107 °C"


Next molecule, please.
# input Fill in: melting point of CCCCc1c(-c2ccc(OC)c(OC3CC3)c2)[nH]c2cn[nH]c(=O)c12 [Example 44] is ___
# output 198 to 200 °C
